read-out: Human Leukocyte Antigen - DR isotype (HLADR), HLA-DRA (gene 3122); test: BSK_CASM3C_HLADR: BioMAP Diversity Plus: CASM3C Assay for Human Leukocyte Antigen - DR isotype (HLADR) Biomarker Activity (AID 2283043); details: primary human coronary artery smooth muscle cells; actives raise or lower the signal;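 further: cell-surface HLA-DR protein level quantified by ELISA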
The source made the active and inactive calls. How the source made its calls: active means hit-call score of the fitted dose curve at least 0.9, where 1 is the maximum; inactive means score below 0.9.
Reply using exactly one outcome from active, inactive

Data request: Hi, sorry to bother you, what did the test record for "CCCCOCCO" ?
Data returned: inactive

Data request: Hi, sorry to bother you, what did the test record for "CC(=O)NC1(c2cccc(F)c2)CCN(CC[C@@]2(c3ccc(Cl)c(Cl)c3)CN(c3ccccc3)C(=O)CO2)CC1" ?
Data returned: active

Data request: Hi, sorry to bother you, what did the test record for "COc1ccc([N+](=O)[O-])cc1N" ?
Data returned: inactive

Data request: Hi, sorry to bother you, what did the test record for "Nc1cccc2c(N)cccc12" ?
Data returned: inactive

Data request: Hi, sorry to bother you, what did the test record for "C[C@@H]1C[C@H]2[C@@H]3CCC4=CC(=O)C=C[C@]4(C)[C@@]3(F)[C@@H](O)C[C@]2(C)[C@@]1(O)C(=O)COP(=O)(O)O" ?
Data returned: inactive

Data request: Hi, sorry to bother you, what did the test record for "CCCCCCCCCCCCCC[N+](C)(C)C" ?
Data returned: active

Data request: Hi, sorry to bother you, what did the test record for "CC(=O)CC(C)(C)O" ?
Data returned: inactive

Data request: Hi, sorry to bother you, what did the test record for "CCCCCCC(=O)O" ?
Data returned: inactive

Data request: Hi, sorry to bother you, what did the test record for "O=C(O)Cc1cc(I)c(Oc2cc(I)c(O)c(I)c2)c(I)c1" ?
Data returned: inactive

Data request: Hi, sorry to bother you, what did the test record for CC(O)CO (centres undefined) ?
Data returned: inactive

Data request: Hi, sorry to bother you, what did the test record for CCc1nn(C2CCCCC2)c2cc(C3(C#N)CCC(C(=O)O)CC3)ccc12 (centres undefined) ?
Data returned: active

Data request: Hi, sorry to bother you, what did the test record for "c1ccc2c(c1)ccc1ccccc12" ?
Data returned: inactive

Data request: Hi, sorry to bother you, what did the test record for "CCCCCCCCC(=O)O" ?
Data returned: inactive

Data request: Hi, sorry to bother you, what did the test record for N#C[C@@H]1CC(F)(F)CN1C(=O)CNC1CC2CCC(C1)N2c1ncccn1 (some centres undefined) ?
Data returned: inactive

Data request: Hi, sorry to bother you, what did the test record for "Cc1cc(C)c(O)c(C)c1" ?
Data returned: inactive

Data request: Hi, sorry to bother you, what did the test record for "Oc1cccc(O)c1" ?
Data returned: inactive

Data request: Hi, sorry to bother you, what did the test record for "CC(C)(C)c1cc(C(C)(C)C)c(O)c(C(C)(C)C)c1" ?
Data returned: inactive

Data request: Hi, sorry to bother you, what did the test record for "CCCCCCCCCCCCN1CCCC1=O" ?
Data returned: inactive

Data request: Hi, sorry to bother you, what did the test record for "COC(=O)CCCCC(=O)OC" ?
Data returned: inactive

# credit: PubChem BioAssay (EPA / NIEHS)
